Where do the numbers come from? From ChEMBL document CHEMBL1201862.

Test system: SK-MEL-5
Experiment Description: NCI tumour cell line growth inhibition, 48 h
The source made the active and inactive calls. Cut-off read from the data, not from the text of the source: active = GI50 up to about 1.1 µM and inactive = higher. Where a SMILES comes first, the peptide text is derived from it. The star is where a group is joined. Cbz = O=C(OCc1ccccc1)*
Parameter Measured: GI50

Sample records with GI50:
Molecule: CCC(=O)N1C(=O)C(CC)(CC)C(=O)N1C(=O)CC
Parameter Measured: GI50
Measurement: > 100 µM (inactive)
//
Molecule: Cc1ccc(-c2n[nH]c(=O)n2/N=C\c2ccc([N+](=O)[O-])cc2)cc1
Parameter Measured: GI50
Measurement: 92.9 µM (inactive)
//
Molecule: COc1ccc(/C(Cl)=C(\CN(C)C)c2ccc(OC)c(OC)c2)cc1OC
Parameter Measured: GI50
Measurement: > 100 µM (inactive)
//
Molecule: CCCCSC1=N/C(=C\c2ccco2)C(Cl)=N1
Parameter Measured: GI50
Measurement: > 100 µM (inactive)
//
Molecule: CN(C)C(=S)/N=c1\ss/c(=N\C(=S)N(C)C)n1-c1ccc(Cl)c(Cl)c1
Parameter Measured: GI50
Measurement: > 100 µM (inactive)

Prompt line: GI50 for "CC(C)(C)c1ccc(/C=N/NC(=O)CSCC(=O)N/N=C/c2ccc(C(C)(C)C)cc2)cc1" ?
Response line: 1.87 µM (inactive)

Prompt line: Item: COC(=O)/C=C/C1C2C3(CCC(C)C12C)OCCS3 (stereo unspecified)
Response line: > 100 µM (inactive)

Prompt line: Proceed to "N#C[C@H](C(=O)c1ccccc1F)c1nc2ccccc2s1"
Response line: 26.9 µM (inactive)

Prompt line: # repeat for CCCCOC1CC2(c3ccc(OC)cc3)C(=O)c3ccccc3N2O1 (stereo unspecified)
Response line: 31.7 µM (inactive)

Prompt line: Now consider C=C(C)C1CC[C@@](C)(O)[C@H](C#N)C1 (stereo partly specified) .
Response line: > 100 µM (inactive)

Prompt line: Also need CCOC(=O)CCC(NC(=O)C(CC(=O)OC)NC(=O)OCc1ccccc1)C(=O)NC(CC(=O)OC)C(=O)NC(CCC(=O)OCC)C(=O)NC(CC(=O)OC)C(=O)NC(CCC(=O)OCC)C(=O)NC(CC(=O)OCC)C(=O)OCC (stereo unspecified) (Cbz-D(OMe)E(OEt)D(OMe)E(OEt)D(OMe)E(OEt)D(OEt)-OEt; configuration not given here) , thanks.
Response line: > 100 µM (inactive)

----------
System: OVCAR-8
Experiment Description: NCI tumour cell line growth inhibition, 48 h
The source made the active and inactive calls. Rule as the data show it: active = GI50 up to about 1.1 µM and inactive = higher.
Your reply should match one of these outcome classes. TRUE for active, FALSE for inactive

Below are worked cases with known answers.
Molecule: COc1ccc(OCC(=O)O)c2c1CCCC2=O
Label: FALSE
--
Molecule: C1=Cc2nc1c(-c1ccccc1)c1nc(c(-c3ccccc3)c3ccc([nH]3)c(-c3ccccc3)c3ccc([nH]3)c2-c2ccccc2)C=C1 [TETRAPHENYLPORPHYRIN]
Label: FALSE
--
Molecule: COC(=O)Cc1cc(O)c2c(c1O)C(=O)c1ccccc1C2=O
Label: FALSE

Prompt line: Please state the recorded outcome for this molecule: O=C(O)CCC(NC(=O)c1ccc(Oc2nc3ccccc3nc2C(=O)O)cc1)C(=O)O (centres undefined)
Response line: FALSE

Prompt line: Param item: "CC(C)(C)C1=CC(=C2C=Cc3ccccc3O2)C=C(C(C)(C)C)C1=O"
Response line: FALSE

Prompt line: Now consider "CC1(C)N=C(/C(Cl)=[N+](/[O-])C(=O)c2ccc(Cl)cc2)C(C)(C)N1O" and answer again.
Response line: FALSE

Prompt line: And then O=C(O)C1C2C=CC(O2)C1C(=O)NCc1cccnc1 (centres undefined) , what is it?
Response line: FALSE

Prompt line: Request: "S=C(N/N=C(/c1ccccc1)c1ccccn1)N(Cc1ccccn1)Cc1ccccn1"
Response line: TRUE
